assay.explanation: gradient 5% acetonitrile 3 min, to 50% in 2 min, to 85% in 15 min, held 3 min, 100 µL/min
setup.conditions: column: Zorbax Extend-C18 2.1 x 50 mm; eluents: water / acetonitrile, 0.1% formic acid
measure: RP-LC retention time (s)

Answered examples (5):
molecule	RP-LC retention time (s)
Cc1nn(C)cc1C(C)NC(=O)C1CCN(c2cnn(Cc3ccccc3)c(=O)c2)CC1 (configuration not stated)	652
Cc1ccc(NC(=O)Nc2ccccc2)c(=O)n1CC(=O)N1CCCC1	767
CNC(=O)C1CCCN(c2nc3ncn(CC(=O)Nc4ccccc4C)c(=O)c3s2)C1 (configuration not stated)	628
Cc1nc2c(c(=O)n1CC(=O)NCCC1=CCCCC1)CCN(Cc1ccccc1)C2	666
Cc1cccnc1NC(=O)c1c(O)c2cc(F)cc3c2n(c1=O)C(C)CC3 (configuration not stated)	848

P. COc1cccc(CNC(=O)C2CCN(C(=O)c3cc4oc5ccccc5c4n3C)CC2)c1OC
Q. COCCCNC(=O)C1CCN(c2ncccc2S(=O)(=O)N2CCOCC2)CC1
R. CSc1ccccc1NC(=O)C(=O)NCC1(c2cccs2)CCCC1
Exercise: Arrange these molecules by their RP-LC retention time, starting with the largest number. In plain terms: list the labels in the order you were asked to.
Solution: R, P, Q

====

assay.explanation: gradient 5% acetonitrile 3 min, to 50% in 2 min, to 85% in 15 min, held 3 min, 100 µL/min
setup.conditions: column: Zorbax Extend-C18 2.1 x 50 mm; eluents: water / acetonitrile, 0.1% formic acid
measure: RP-LC retention time (s)

compound	measure	numeric.readout
Cc1cc(C)cc(NC(=O)N2C[C@@H](F)C[C@H]2C(=O)N2CCc3ccccc3C2)c1	RP-LC retention time	879

P. CC(C)c1ccc(NC(=O)CN2C(=O)C3CCCCN3c3ccc(S(=O)(=O)N(C)C)cc32)cc1 (configuration not stated)
Q. c1ccc(CN2CCCC(c3n[nH]c(C4CC4)n3)C2)nc1 (configuration not stated)
Exercise: Min RP-LC retention time? P | Q Give the label of your selection.
Solution: Q

a. CSc1ccccc1NC(=O)c1nnn(-c2cc(Cl)ccc2C)c1C
b. CC(CC(=O)NCCC1=CCCCC1)Cc1nnc2c(=O)n(-c3cccc(F)c3)ccn12 (configuration not stated)
Exercise: Of the two listed items, which has the higher RP-LC retention time? First: a Second: b Give the label of your selection.
Solution: a
(a: 1180 s, b: 813 s)

P. O=C(NCCc1cccs1)c1nnc(-c2ccc(S(=O)(=O)N3CCCCC3)cc2)o1
Q. c1cc(N2CCCCCC2)ncc1-c1noc(CN2CCCC2)n1
Exercise: Of the two listed items, which has the higher RP-LC retention time? First: P Second: Q Give the label of your selection.
Solution: P

====

assay.explanation: gradient 5% acetonitrile 3 min, to 50% in 2 min, to 85% in 15 min, held 3 min, 100 µL/min
setup.conditions: column: Zorbax Extend-C18 2.1 x 50 mm; eluents: water / acetonitrile, 0.1% formic acid
measure: RP-LC retention time (s)

compound	RP-LC retention time (s)
COc1ccc(CN(CCC2(C(C)C)CCOC(C)(C)C2)C(C)=O)cc1OC (stereo not drawn)	864
CCn1nc(C)c2c(-c3ccccc3)cc(OC(C)C(=O)Nc3ccc4c(c3)OCO4)nc21 (stereo not drawn)	1030
CN1CCn2cc(S(=O)(=O)Nc3cc(F)cc(F)c3)cc2C1=O	727
COc1ccc(C)cc1NC(=O)Cc1csc2nc(-c3ccc(C)c(C)c3)cn12	930
Cc1ccc(-c2cc(N3CCOCC3)c3cc(NC(=O)NC4CCCCC4)ccc3n2)cc1	787
CCC1(C(=O)NCc2ccc(C)cc2)CCCCC(=O)N1 (stereo not drawn)	707
O=C(Cn1cc(S(=O)(=O)N2CCCCC2)ccc1=O)N1CCCc2ccccc21	846
O=C(Nc1ccccc1)C1CCc2nc(N3CCN(C(=O)C4CCC4)CC3)sc2C1 (stereo not drawn)	608
Cc1ccc(-n2nnc(C(=O)O)c2-c2ccccn2)cc1	670
CC(C)c1ccc(CN2CC(c3nc(CCN(C)S(C)(=O)=O)no3)C2)cc1	664

a. CCN(CC)C(=O)c1c2c(nc3ccccc13)CCCC2
b. CC(C)CCNC(=O)c1nn(-c2ccc(F)cc2)nc1CO
Exercise: Min RP-LC retention time? a | b Give the label of your selection.
Solution: a
